# measurement target: T1, Nluc-IL23R fusion protein (human, UniProt Q5VWK5 22-629)
# T1 construct: range 22-629; Stably expressed in HEK293 cells; also called hIL-23R; human IL-23R fused to a Nanoluc luciferase enzyme; not shown: Nanoluc luciferase (Promega N1371 plasmid) at the N-terminus
# T1 sequence (looked up): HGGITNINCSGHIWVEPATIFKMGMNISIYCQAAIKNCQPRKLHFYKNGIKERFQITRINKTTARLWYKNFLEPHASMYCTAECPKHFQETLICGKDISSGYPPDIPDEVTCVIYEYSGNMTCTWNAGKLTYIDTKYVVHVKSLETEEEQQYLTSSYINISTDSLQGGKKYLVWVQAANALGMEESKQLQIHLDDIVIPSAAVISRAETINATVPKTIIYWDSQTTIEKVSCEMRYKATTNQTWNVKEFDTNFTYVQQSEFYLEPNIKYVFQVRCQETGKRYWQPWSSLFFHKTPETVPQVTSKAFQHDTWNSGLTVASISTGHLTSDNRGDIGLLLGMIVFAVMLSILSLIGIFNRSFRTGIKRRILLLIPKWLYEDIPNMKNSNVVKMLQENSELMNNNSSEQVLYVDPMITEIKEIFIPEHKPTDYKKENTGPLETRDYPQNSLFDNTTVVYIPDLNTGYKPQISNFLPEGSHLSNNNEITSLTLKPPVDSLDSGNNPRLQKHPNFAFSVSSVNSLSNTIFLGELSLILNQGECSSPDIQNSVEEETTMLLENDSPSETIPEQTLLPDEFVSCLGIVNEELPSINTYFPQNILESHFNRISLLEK
# measurement protocol: BRET displacement of TAMRA-labelled peptide, Nluc-IL23R membranes
pKi: −log10 of the molar value. Bridges are numbered along the chain shown (N, C = ends). 1,3‑dibromopropan‑2‑one = linker (CAS 816-39-7) joining two Cys as 1,3-dithio-propan-2-one bridge -SCH2C(=O)CH2S-

| binder | pKi |
| --- | --- |
| H-DESCWQCWWLKR-NH2 (lactam 2-11; linker 4-7 via 1,3‑dibromopropan‑2‑one) [Compound 4] | 6.84 |
